Sourced from the supplement of paper PMC9170038

Measured apparent KD of MS2 coat protein by item
System: MS2 coat protein
Method Summary: apparent KD of MS2 coat protein; designed switch direction (-1 OFF switch, 1 ON switch): -1; higher = weaker reporter binding
Stated Conditions: input ligand: none
Measured Quantity: apparent KD of MS2 coat protein (nM)

UCGUGUAUAGAGGAUAUAUUAUUUUUUAAAACAAUAGAAGGCUAAACAUGAGGAUCACCCAUGUAUUUGGUUUU [JR_Ex6_Sub053] (Eterna round: R97, puzzle: Exclusion 6)	19.6
ACAUGAGGAUCACCCAUGUUUGGCUGGUUCUCUCCGGCUGUUGAGGAUAUAGUCCGGUAUCCGCGCUAGAAGGUGAGGGCUGGC [Aenatbe mod 7] (Eterna round: R96, puzzle: Exclusion NG 3)	24.2
GAAUUCCGAGGAUAUUCGGAACCAGACAUGAGGAUCACCCAUGUGAUGCAGUUUCCGUUCGAAGAAGGUGGAACGC [Eternabot (Original) Solution 28] (Eterna round: R97, puzzle: Exclusion 5)	23.3

###

Measured apparent KD of MS2 coat protein by item
Tested on: MS2 coat protein
Method Summary: apparent KD of MS2 coat protein; designed switch direction (-1 OFF switch, 1 ON switch): -1; higher = weaker reporter binding
Stated Conditions: Eterna round: R95; input ligand: FMN 200 uM
Measured Quantity: apparent KD of MS2 coat protein

CUGAGCAGACGGAAAUCCAACAUGAGGAUCACCCAUGUCUCAAAAGCUUUUUGCUCGUCUUAUCUUCCUCUGCUCUC [Cecelein] (puzzle: Sensor v3, turn-off variant 1)	0.0129 µM
CCAGCGUAUGUGAGGAUAUGCUGGUCCUUGGAUCAGCAGAAGGCACAUGAGGAUCACCCAUGUGGUGACGUUGG [JL bmx4 3.44] (puzzle: Brourd's mod of Exclusion 4)	0.0191 µM
UCUAGACAUGAGGAUCACCCAUGUGAGGAUAUGAUGCGAAUAAAGAAAGAAGAAAGCAUCAGAAGGCACAUAUG [Fiskers Ex 1 - 3] (puzzle: Exclusion 1)	0.21 µM
CGGUGCUGAGGAUAUACAUGAGGAUCACCCAUGUGUUAUUGAUAGAAAACUGGCAGAUGUAGAAGGCGGUACUG [Mat - Exclusion 3 - Mod of JL D99] (puzzle: Exclusion 3)	0.0805 µM
GAGGAGCAAGGAUAUACGAGGAUAUGGAAGGUUGGAGAGUGACAUGAGGAUCACCCAUGUAGAAGGUGCAAGGG [JR_Exclu2_Sub096] (puzzle: Exclusion 2)	0.0659 µM

###

Test system: MS2 coat protein
Method Summary: apparent KD of MS2 coat protein, switch OFF state (with FMN for OFF switches, without FMN for ON switches); designed switch direction (-1 OFF switch, 1 ON switch): -1; higher = weaker reporter binding
Stated Conditions: FMN input: 0 or 200 uM; Eterna round: R93 (includes R88 designs)
Measured apparent KD of MS2 coat protein by item
Measured Quantity: apparent KD of MS2 coat protein (nM)

GCUUGGGUAGGAUAUACAUGAGGAUCACCCAUGUGAGAGAAAAAAGUGAGAAAGAAAAGUAGAAGGACCUGAGG [salish99-ex3-107]	244
AAAAAUCGAGGAUAUACAUGAGGAUCACCCAUGUUAGAAAAUGAUUACACAAAAGAAAGUAGAAGGCGAUAAAA [Ex 3 May 20]	23.4
AACGGGCUAGGAUAUACACAAGCCUCAGAACAAAUAAACAAACAUGAGGAUCACCCAUGUAGAAGGAGCGCAAA [Lesocerean]	42.9
CUCAUGUUAGGAUAUAUAUGAAAUGAAGUGAAAGAAAAGAAAUAGAAGGAACAUGAGGAUCACCCAUGUUAGAA [EteRNA is fun!]	32.6
GGUUGGCGAGGAUAUACAUGAGGAUCACCCAUGUGAGAGAAAAAAGUGAGAAAGAAAAGUAGAAGGCGCUGACC [salish99-ex3-04]	242
AAGGAUAGAGGAUAUACAUAGAUACAGAUUCAUGUAGAACUACAUGAGGAUCACCCAUGUAGAAGGCUAUCAUA [AJ 32]	89.1
AAAAAGAGAGGAUAUACAUGAGGAUCACCCAUGUGACACAAAAAAAAAAAAAAAAAAUGUAGAAGGCUCAAAAA [65%, Moding Exclusion3-cac2, 18]	97.2
AAGAACGGAGGAUAUACAUGAAAGAAAGAAAAGAAAAGAAAACAUGAGGAUCACCCAUGUAGAAGGCCGAAGAA [EteRNA is fun!]	53.3
CUCAAGUUAGGAUAUGAAAGAAAAGAAGAGAAAGAAAAGAAUCAGAAGGAACAUGAGGAUCACCCAUGUAAGAA [EteRNA is fun!]	19.5
AACUGACAUGAGGAUCACCCAUGUCAGGAUAUGACAUCGAAAAAUAAAUAAAUCGUUGUCAGAAGGGACAUGAA [Design 76: Sub-opt S]	14.9
AAGAAGUAAGGAUAUCGGAGAGAACAAGAAAGUGAAGAAUACGAGAAGGUACAUGAGGAUCACCCAUGUAAAGA [EXC - 4]	19
AAAUAGCAAGGAUAUACAUGAGGAUCACCCAUGUGAAAAAGAUAUGGAAUAGAAUAGAGUAGAAGGUGCAAAUA [Ex 3 Tesla 8]	54.1
AACAGGUGAGGAUAUCGAACAACAACAACAACAACAACAAACGAGAAGGCACAUGAGGAUCACCCAUGUAAGAA [Exclusion 4C]	16.6
